What Time was measured for each of the following?
tested on: Mus musculus; test: Toxicity in mouse assessed as tail bleeding time at 0.50 mmol/kg, po administered 30 mins prior to tail transection measured every 30 secs (reference value: 120.5 +/- 7.9 sec); format: organism-based; conditions: in vivo
Answer format: numeric, s implied, no suffix.

The value of Time measured for the compound CC1(C)CC(n2cc(CNC(=O)[C@@H](Cc3ccccc3)NC(=O)[C@@H]3Cc4c([nH]c5ccccc45)CN3C(=O)[C@@H]3Cc4c([nH]c5ccccc45)CN3)nn2)CC(C)(C)N1[O] turned out to be 119.4

The value of Time measured for the compound CC1(C)CC(n2cc(CNC(=O)[C@@H](CCCCN)NC(=O)[C@@H]3Cc4c([nH]c5ccccc45)CN3C(=O)[C@@H]3Cc4c([nH]c5ccccc45)CN3)nn2)CC(C)(C)N1[O] turned out to be 121.4

The value of Time measured for the compound C[C@@H](O)[C@@H](NC(=O)[C@@H]1Cc2c([nH]c3ccccc23)CN1C(=O)[C@@H]1Cc2c([nH]c3ccccc23)CN1)C(=O)NCc1cn(C2CC(C)(C)N([O])C(C)(C)C2)nn1 turned out to be 116.9

###

What Time was measured for each of the following?
system: Mus musculus; experiment: Toxicity in mouse assessed as tail bleeding time at 0.50 mmol/kg, po administered 30 mins prior to tail transection measured every 30 secs (reference value: 120.5 +/- 7.9 sec); format: organism-based; conditions: in vivo
Answer format: numeric, s implied, no suffix.

The value of Time measured for the compound CC(C)C[C@@H](NC(=O)[C@@H]1Cc2c([nH]c3ccccc23)CN1C(=O)[C@@H]1Cc2c([nH]c3ccccc23)CN1)C(=O)NCc1cn(C2CC(C)(C)N([O])C(C)(C)C2)nn1 turned out to be 121

The value of Time measured for the compound CC1(C)CC(n2cc(CNC(=O)[C@@H](CCC(N)=O)NC(=O)[C@@H]3Cc4c([nH]c5ccccc45)CN3C(=O)[C@@H]3Cc4c([nH]c5ccccc45)CN3)nn2)CC(C)(C)N1[O] turned out to be 117.4

The value of Time measured for the compound CC1(C)CC(n2cc(CNC(=O)CNC(=O)[C@@H]3Cc4c([nH]c5ccccc45)CN3C(=O)[C@@H]3Cc4c([nH]c5ccccc45)CN3)nn2)CC(C)(C)N1[O] turned out to be 117.7

The value of Time measured for the compound CC1(C)CC(n2cc(CNC(=O)[C@@H](CCCNC(=N)N([N+](=O)[O-])[N+](=O)[O-])NC(=O)[C@@H]3Cc4c([nH]c5ccccc45)CN3C(=O)[C@@H]3Cc4c([nH]c5ccccc45)CN3)nn2)CC(C)(C)N1[O] turned out to be 121.8

The value of Time measured for the compound CSCC[C@@H](NC(=O)[C@@H]1Cc2c([nH]c3ccccc23)CN1C(=O)[C@@H]1Cc2c([nH]c3ccccc23)CN1)C(=O)NCc1cn(C2CC(C)(C)N([O])C(C)(C)C2)nn1 turned out to be 119.3

###

system: Mus musculus; experiment: Toxicity in mouse assessed as tail bleeding time at 0.50 mmol/kg, po administered 45 mins prior to tail transection measured every 30 secs (reference value: 119.8 +/- 8.4 sec); format: organism-based; settings: in vivo
Property Measured: Time (s)
Answer format: numeric, s implied, no suffix.

The value of Time measured for the molecule CC[C@@H](C)[C@@H](NC(=O)[C@@H]1Cc2c([nH]c3ccccc23)CN1C(=O)[C@@H]1Cc2c([nH]c3ccccc23)CN1)C(=O)NCc1cn(C2CC(C)(C)N([O])C(C)(C)C2)nn1 turned out to be 117.5

The value of Time measured for the molecule CC1(C)CC(n2cc(CNC(=O)[C@@H](Cc3ccc(O)cc3)NC(=O)[C@@H]3Cc4c([nH]c5ccccc45)CN3C(=O)[C@@H]3Cc4c([nH]c5ccccc45)CN3)nn2)CC(C)(C)N1[O] turned out to be 118

The value of Time measured for the molecule CSCC[C@@H](NC(=O)[C@@H]1Cc2c([nH]c3ccccc23)CN1C(=O)[C@@H]1Cc2c([nH]c3ccccc23)CN1)C(=O)NCc1cn(C2CC(C)(C)N([O])C(C)(C)C2)nn1 turned out to be 118.4

The value of Time measured for the molecule CC1(C)CC(n2cc(CNC(=O)[C@@H](CCCCN)NC(=O)[C@@H]3Cc4c([nH]c5ccccc45)CN3C(=O)[C@@H]3Cc4c([nH]c5ccccc45)CN3)nn2)CC(C)(C)N1[O] turned out to be 119.8

The value of Time measured for the molecule CC1(C)CC(n2cc(CNC(=O)C[C@@H](NC(=O)[C@@H]3Cc4c([nH]c5ccccc45)CN3C(=O)[C@@H]3Cc4c([nH]c5ccccc45)CN3)C(=O)NCc3cn(C4CC(C)(C)N([O])C(C)(C)C4)nn3)nn2)CC(C)(C)N1[O] turned out to be 118.2

###

test system: Mus musculus; assay: Toxicity in mouse assessed as tail bleeding time at 0.50 mmol/kg, po administered 60 mins prior to tail transection measured every 30 secs (reference value: 120.4 +/- 7.9 sec); type: organism-based; details: in vivo
What Time was measured for each of the following?
Answer format: numeric, s implied, no suffix.

The compound CSCC[C@@H](NC(=O)[C@@H]1Cc2c([nH]c3ccccc23)CN1C(=O)[C@@H]1Cc2c([nH]c3ccccc23)CN1)C(=O)NCc1cn(C2CC(C)(C)N([O])C(C)(C)C2)nn1 , tested on Mus musculus, showed Time of 119.6

The compound CC1(C)CC(n2cc(CNC(=O)[C@@H](Cc3c[nH]c4ccccc34)NC(=O)[C@@H]3Cc4c([nH]c5ccccc45)CN3C(=O)[C@@H]3Cc4c([nH]c5ccccc45)CN3)nn2)CC(C)(C)N1[O] , tested on Mus musculus, showed Time of 121.8

The compound CC1(C)CC(n2cc(CNC(=O)[C@@H](CCCNC(=N)N([N+](=O)[O-])[N+](=O)[O-])NC(=O)[C@@H]3Cc4c([nH]c5ccccc45)CN3C(=O)[C@@H]3Cc4c([nH]c5ccccc45)CN3)nn2)CC(C)(C)N1[O] , tested on Mus musculus, showed Time of 119.8

The compound C[C@@H](O)[C@@H](NC(=O)[C@@H]1Cc2c([nH]c3ccccc23)CN1C(=O)[C@@H]1Cc2c([nH]c3ccccc23)CN1)C(=O)NCc1cn(C2CC(C)(C)N([O])C(C)(C)C2)nn1 , tested on Mus musculus, showed Time of 118.5

The compound CC(C)C[C@@H](NC(=O)[C@@H]1Cc2c([nH]c3ccccc23)CN1C(=O)[C@@H]1Cc2c([nH]c3ccccc23)CN1)C(=O)NCc1cn(C2CC(C)(C)N([O])C(C)(C)C2)nn1 , tested on Mus musculus, showed Time of 119.8

###

test system: Mus musculus; experiment: Toxicity in mouse assessed as tail bleeding time at 0.50 mmol/kg, po administered 30 mins prior to tail transection measured every 30 secs (reference value: 120.5 +/- 7.9 sec); type: organism-based; details: in vivo
What Time was measured for each of the following?

The value of Time measured for the compound CC1(C)CC(n2cc(CNC(=O)[C@@H](CC(N)=O)NC(=O)[C@@H]3Cc4c([nH]c5ccccc45)CN3C(=O)[C@@H]3Cc4c([nH]c5ccccc45)CN3)nn2)CC(C)(C)N1[O] turned out to be 119.7 s

The value of Time measured for the compound CC1(C)CC(n2cc(CNC(=O)[C@@H](CO)NC(=O)[C@@H]3Cc4c([nH]c5ccccc45)CN3C(=O)[C@@H]3Cc4c([nH]c5ccccc45)CN3)nn2)CC(C)(C)N1[O] turned out to be 121.1 s

The value of Time measured for the compound CC1(C)CC(n2cc(CNC(=O)[C@@H](Cc3ccc(O)cc3)NC(=O)[C@@H]3Cc4c([nH]c5ccccc45)CN3C(=O)[C@@H]3Cc4c([nH]c5ccccc45)CN3)nn2)CC(C)(C)N1[O] turned out to be 117.2 s

The value of Time measured for the compound CC1(C)CC(n2cc(CNC(=O)[C@H]3CCCN3C(=O)[C@@H]3Cc4c([nH]c5ccccc45)CN3C(=O)[C@@H]3Cc4c([nH]c5ccccc45)CN3)nn2)CC(C)(C)N1[O] turned out to be 119.9 s

The value of Time measured for the compound CC1(C)CC(n2cc(CNC(=O)[C@@H](Cc3c[nH]c4ccccc34)NC(=O)[C@@H]3Cc4c([nH]c5ccccc45)CN3C(=O)[C@@H]3Cc4c([nH]c5ccccc45)CN3)nn2)CC(C)(C)N1[O] turned out to be 119.4 s

###

What Time was measured for each of the following?
system: Mus musculus; experiment: Toxicity in mouse assessed as tail bleeding time at 0.50 mmol/kg, po administered 45 mins prior to tail transection measured every 30 secs (reference value: 119.8 +/- 8.4 sec); type: organism-based; settings: in vivo
Answer format: numeric, s implied, no suffix.

The value of Time measured for the compound CC1(C)CC(n2cc(CNC(=O)[C@@H](CO)NC(=O)[C@@H]3Cc4c([nH]c5ccccc45)CN3C(=O)[C@@H]3Cc4c([nH]c5ccccc45)CN3)nn2)CC(C)(C)N1[O] turned out to be 119.7

The value of Time measured for the compound CC1(C)CC(n2cc(CNC(=O)CC[C@@H](NC(=O)[C@@H]3Cc4c([nH]c5ccccc45)CN3C(=O)[C@@H]3Cc4c([nH]c5ccccc45)CN3)C(=O)NCc3cn(C4CC(C)(C)N([O])C(C)(C)C4)nn3)nn2)CC(C)(C)N1[O] turned out to be 117.1

The value of Time measured for the compound CC1(C)CC(n2cc(CNC(=O)[C@@H](CCCNC(=N)N([N+](=O)[O-])[N+](=O)[O-])NC(=O)[C@@H]3Cc4c([nH]c5ccccc45)CN3C(=O)[C@@H]3Cc4c([nH]c5ccccc45)CN3)nn2)CC(C)(C)N1[O] turned out to be 120.2

The value of Time measured for the compound C[C@@H](NC(=O)[C@@H]1Cc2c([nH]c3ccccc23)CN1C(=O)[C@@H]1Cc2c([nH]c3ccccc23)CN1)C(=O)NCc1cn(C2CC(C)(C)N([O])C(C)(C)C2)nn1 turned out to be 115.3

The value of Time measured for the compound CC1(C)CC(n2cc(CNC(=O)[C@@H](CCC(N)=O)NC(=O)[C@@H]3Cc4c([nH]c5ccccc45)CN3C(=O)[C@@H]3Cc4c([nH]c5ccccc45)CN3)nn2)CC(C)(C)N1[O] turned out to be 119.6

Data provenance is ChEMBL document CHEMBL4028817.
